# study_system: APC (Homo sapiens, UniProt P04070)
# Sequence (P04070 43-197 limits assumed): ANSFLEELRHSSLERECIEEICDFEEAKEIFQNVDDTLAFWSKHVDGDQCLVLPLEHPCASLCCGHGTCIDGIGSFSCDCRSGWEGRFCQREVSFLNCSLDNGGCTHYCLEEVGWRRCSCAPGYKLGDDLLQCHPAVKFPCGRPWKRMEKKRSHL
# Sequence (P04070 212-450 limits assumed): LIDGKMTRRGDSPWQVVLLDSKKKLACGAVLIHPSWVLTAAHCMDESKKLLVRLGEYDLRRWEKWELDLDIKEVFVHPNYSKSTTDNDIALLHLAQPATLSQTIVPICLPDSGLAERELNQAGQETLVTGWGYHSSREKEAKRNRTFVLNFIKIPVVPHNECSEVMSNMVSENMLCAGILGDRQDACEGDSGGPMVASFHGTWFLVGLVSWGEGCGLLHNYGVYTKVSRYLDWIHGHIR
# assay_notes: APTT and Xa-1-stage coagulation assays, inhibition of APC anticoagulant activity
# Assay type: biochemical
# Set-up: Protein C consists of a 155 amino acid residue light chain and a 262 amino acid residue heavy chain; from tissue; host or cells: human plasma factor IX concentrate
# condition_set: APTT and Xa-1-stage assays in NHP and PSDP; read-out: 50% inhibition of APC anticoagulant activity
pIC50: −log10 of the molar value. No end group written: not given here.
readout: pIC50

Challenge: Consider the substance KRNRTFVLNFIKIPV-NH2 [PC311-325] and give its measured pIC50.
Response given: 4.70 to 5.15

----------
# study_system: Factor Xa (Homo sapiens, UniProt P00742)
# Construct: purchased Enzyme Research Laboratories, Southbend, Ind
# Sequence (P00742 41-179 limits assumed): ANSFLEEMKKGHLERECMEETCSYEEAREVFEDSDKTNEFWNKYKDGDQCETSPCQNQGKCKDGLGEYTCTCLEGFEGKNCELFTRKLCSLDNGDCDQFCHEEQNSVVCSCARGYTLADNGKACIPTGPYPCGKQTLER
# Sequence (P00742 235-488 limits assumed): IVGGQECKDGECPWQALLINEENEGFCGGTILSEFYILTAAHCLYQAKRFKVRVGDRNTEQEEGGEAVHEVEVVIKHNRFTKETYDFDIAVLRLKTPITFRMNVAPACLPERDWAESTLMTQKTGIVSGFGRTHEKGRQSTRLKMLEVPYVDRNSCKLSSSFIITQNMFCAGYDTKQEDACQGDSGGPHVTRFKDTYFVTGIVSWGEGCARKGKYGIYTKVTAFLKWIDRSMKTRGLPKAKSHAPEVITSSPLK
# assay_notes: Factor Xa clotting activity in NHP without added APC (Factor Xa-1 Stage clotting assay)
# Format: biochemical
No end group written: not given here.
readout: IC50

Below are worked cases with known answers.
# substance, endpoint_value
records = [
    ("VTAFLKWIDRSMKTR-NH2 [X415-429]", "115 µM"),
    ("QVVNLPIVERPVSKD-NH2 [PT481-495]", "> 500 µM"),
    ("NLKETWTANVGKGQP [PT463-478]", "> 500 µM"),
    ("GKGQPSVLQVVNLPI-NH2 [PT473-487]", "25 µM"),
    ("ARKGKYGIYTKVTAF-NH2 [X404-418]", "50 µM"),
    ("YGFYTHVFRLKKWIQ-NH2 [PT557-571]", "50 µM"),
]

Challenge: Entry EKGRQSTRLKMLEVPY-NH2 [X329-344] : reported IC50 = ?
Response given: 500 µM
